- Tested on: BT-549 breast
- method: NCI-60 one-dose screen, 48 h (100 = growth as untreated, 0 = no growth, -100 = all killed)
- conditionSummary: 10 µM unless noted
- Description: Growth inhibition of the BT-549 human tumor cell line is measured as a screen for anti-cancer activity. Cells are grown in 96 well plates and exposed to the test compound for 48 hours. Compounds are tested at a single concentration, which is 10^-5 M for most compounds. The reported endpoint is percent growth (GI% or GIPRCNT), where numbers from 0 - 100% represent growth inhibition, and numbers from -100% - 0 represent cell death. For example, a value of 40 represents 60% growth inhibition. […]
The panel holds about 83,000 compounds, 20% with a hit somewhere; the sample as a whole holds those more often.
quantity: growth (%)
Please reply with the bare figure in % and do not write the unit itself.

molecule	valueReported
C=C1CC[C@@H]2[C@]3(C)COC(c4cn[nH]c4-c4ccc(Br)cc4)O[C@@H]3CC[C@@]2(C)[C@@H]1C/C=C1/C(=O)OCC1O (stereo partly drawn)	-96.6
O=C1CCCc2cc(OCC(=O)N3CCCCC3)ccc2N1	126

# next molecule below
Could you share which growth value was measured for `COc1ccc2oc3c4[nH]c5ccccc5c4c4c(c3c2c1)C(=O)N(C(=O)OC(C)(C)C)C4=O` ?
-44.2

Recorded values, source PubChem BioAssay (NCI).
